Value source: paper PMC4335062

# TGT: BACH2 (Homo sapiens, UniProt Q9BYV9)
# Sequence (Q9BYV9 646-709 limits assumed): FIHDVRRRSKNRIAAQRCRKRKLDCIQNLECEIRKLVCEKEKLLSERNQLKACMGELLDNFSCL
# TEST NAME: Direct-binding FRET assay
# Parameters: made in house
# EXPERIMENTAL CONDITIONS: Kd, 4°C; C-terminal rhodamine design; mean or single
Where no end group is shown, it is not given here.
MEASURED METRIC: Kd

In plain terms, SIAATLEKEEANLEKMNKKLAAEIESLLKEKDKLESVLNYHE [JUN-d1] has a documented Kd of > 5 µM

----------
# TGT: CREB3L3 (Homo sapiens, UniProt Q68CJ9)
# Construct: made in house
# Sequence (Q68CJ9 243-306 limits assumed): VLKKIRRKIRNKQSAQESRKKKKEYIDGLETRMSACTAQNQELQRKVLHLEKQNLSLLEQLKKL
# TEST NAME: Direct-binding FRET assay
# EXPERIMENTAL CONDITIONS: 4°C; N-terminal rhodamine design; mean or single; read-out: Kd
pKd: −log10 of the molar value. Where no end group is shown, it is not given here.
Recorded pKd for the following sequences

These recorded examples may help you get a feel for the data.
ORDERED RESIDUES	RESULT
KRIAYLRQRIAELRNENHVLESRIQRMEKEKDALQQDRDHLEYEL [ATF5-d1]	< 5.30
EREAQLENRVAHLKEKNQELKAQNLHLKEALSEAQNRNQELKNDA [XBP1-d1]	< 6.00

Next:
In plain terms, NQIKTLRTRLSKLRKDNLQLEKDIANLERKAKDLRAEKEQLEYEL [ATF4-d1] has a documented pKd of < 6.00

----------
# TGT: BACH1 (Homo sapiens, UniProt O14867)
# Sequence (O14867 557-620 limits assumed): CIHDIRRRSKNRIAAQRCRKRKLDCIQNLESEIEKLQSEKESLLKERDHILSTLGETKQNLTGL
# TEST NAME: Direct-binding FRET assay
# Design: made in house
# EXPERIMENTAL CONDITIONS: 4°C; C-terminal rhodamine design; mean or single; read-out: Kd
Where no end group is shown, it is not given here.
MEASURED METRIC: Kd

These recorded examples may help you get a feel for the data.
ORDERED RESIDUES	Kd
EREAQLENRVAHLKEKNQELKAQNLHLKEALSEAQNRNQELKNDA [XBP1-d1]	> 1000 nM
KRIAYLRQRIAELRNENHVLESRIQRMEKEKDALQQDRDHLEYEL [ATF5-d1]	> 1000 nM

Next:
In plain terms, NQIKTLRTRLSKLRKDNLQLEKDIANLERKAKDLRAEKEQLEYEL [ATF4-d1] has a documented Kd of > 5000 nM

----------
# TGT: MAFB (Homo sapiens)
# Sequence (Q9Y5Q3 238-301 limits assumed): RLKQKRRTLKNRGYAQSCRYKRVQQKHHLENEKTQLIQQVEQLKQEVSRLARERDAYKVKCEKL
# TEST NAME: Direct-binding FRET assay
# Set-up: made in house
# EXPERIMENTAL CONDITIONS: 23°C; N-terminal rhodamine design; mean or single; read-out: Kd
pKd: −log10 of the molar value. Where no end group is shown, it is not given here.
MEASURED METRIC: pKd

ORDERED RESIDUES	RESULT
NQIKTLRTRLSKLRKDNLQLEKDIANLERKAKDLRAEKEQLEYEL [ATF4-d1]	< 6.00

Next:
In plain terms, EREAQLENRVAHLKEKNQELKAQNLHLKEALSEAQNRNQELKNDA [XBP1-d1] has a documented pKd of < 6.00

----------
# TGT: BATF (Homo sapiens)
# Construct: made in house
# Sequence (Q16520 26-89 limits assumed): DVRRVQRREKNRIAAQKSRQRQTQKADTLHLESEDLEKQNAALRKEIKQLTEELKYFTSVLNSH
# TEST NAME: Direct-binding FRET assay
# EXPERIMENTAL CONDITIONS: Kd, 23°C; C-terminal fluorescein design as donor, TAMRA target titrated
pKd: −log10 of the molar value. Where no end group is shown, it is not given here.
MEASURED METRIC: pKd

In plain terms, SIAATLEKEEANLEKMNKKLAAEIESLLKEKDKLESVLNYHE [JUN-d1] has a documented pKd of < 6.00
